From: ChEMBL document CHEMBL1149678

molecular target: Retinoic acid receptor RXR-alpha (Homo sapiens); assay: Antagonist activity at human RXRalpha expressed in […] cells assessed as inhibition of LG-100268-induced transactivation; type: functional, cell-based, HEK293
Sequence (P19793 whole entry): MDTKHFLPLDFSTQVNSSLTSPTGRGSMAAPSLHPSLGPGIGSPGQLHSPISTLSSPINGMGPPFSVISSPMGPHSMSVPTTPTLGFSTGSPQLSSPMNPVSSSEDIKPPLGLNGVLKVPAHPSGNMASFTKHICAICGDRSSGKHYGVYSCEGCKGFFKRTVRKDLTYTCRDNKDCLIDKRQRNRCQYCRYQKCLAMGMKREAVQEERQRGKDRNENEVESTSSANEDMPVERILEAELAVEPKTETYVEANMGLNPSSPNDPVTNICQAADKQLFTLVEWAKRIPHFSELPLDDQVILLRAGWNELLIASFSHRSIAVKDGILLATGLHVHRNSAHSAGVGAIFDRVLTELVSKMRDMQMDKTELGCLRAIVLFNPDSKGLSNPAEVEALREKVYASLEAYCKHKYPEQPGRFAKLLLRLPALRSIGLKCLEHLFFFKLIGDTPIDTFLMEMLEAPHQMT
Readout Label: IC50 (µM)

Check out these entries, answers already filled in.
* CCCNC(=O)Nc1ccc2c(c1)N=C(c1ccc(C(=O)O)cc1)c1cc3c(cc1N2C)C(C)(C)CCC3(C)C | 5.2
* CCCN1c2ccc(NC(=O)Cc3ccc(F)cc3)cc2N=C(c2ccc(C(=O)O)cc2)c2cc3c(cc21)C(C)(C)CCC3(C)C | 3.9

(a) CCS(=O)(=O)Nc1ccc2c(c1)N=C(c1ccc(C(=O)O)cc1)c1cc3c(cc1N2C)C(C)(C)CCC3(C)C
(b) CN1c2ccc(NC(=O)NCc3ccccc3)cc2N=C(c2ccc(C(=O)O)cc2)c2cc3c(cc21)C(C)(C)CCC3(C)C
query: Compare reported IC50 values for a and b . Which is lower? When you have decided, please share the label of that item.
result: b

====

biological target: Retinoic acid receptor RXR-alpha (Homo sapiens); assay: Antagonist activity at human RXRalpha expressed in […] cells assessed as inhibition of LG-100268-induced transactivation; assay type: functional, cell-based, HEK293
pIC50: −log10 of the molar value.
Readout Label: pIC50

Example cases with answers are listed next.
* CCN1c2ccc(NC(=O)Cc3ccc(F)cc3)cc2N=C(c2ccc(C(=O)O)cc2)c2cc3c(cc21)C(C)(C)CCC3(C)C | 5.92
* CN1c2ccc(NS(=O)(=O)c3ccc(F)cc3)cc2N=C(c2ccc(C(=O)O)cc2)c2cc3c(cc21)C(C)(C)CCC3(C)C | 5.77
* CN1c2ccc(NS(=O)(=O)/C=C/c3ccccc3)cc2N=C(c2ccc(C(=O)O)cc2)c2cc3c(cc21)C(C)(C)CCC3(C)C | 5.54

(I) CN1c2ccc(NS(=O)(=O)c3ccccc3)cc2N=C(c2ccc(C(=O)O)cc2)c2cc3c(cc21)C(C)(C)CCC3(C)C
(II) CCCCS(=O)(=O)Nc1ccc2c(c1)N=C(c1ccc(C(=O)O)cc1)c1cc3c(cc1N2CCC)C(C)(C)CCC3(C)C
query: Which of the two gives a bigger number for pIC50: I or II ? Identify your selection by its label.
result: II
(II: 6.07, I: 5.85)

====

target: Retinoic acid receptor RXR-alpha (Homo sapiens); assay: Antagonist activity at human RXRalpha expressed in […] cells assessed as inhibition of LG-100268-induced transactivation; assay type: functional, cell-based, HEK293
Readout Label: IC50 (µM)

Solved entries (count: 2):
- CC(C)C(=O)Nc1ccc2c(c1)N=C(c1ccc(C(=O)O)cc1)c1cc3c(cc1N2C)C(C)(C)CCC3(C)C: 5.6
- CCCN1c2ccc(NS(=O)(=O)c3ccc(F)cc3)cc2N=C(c2ccc(C(=O)O)cc2)c2cc3c(cc21)C(C)(C)CCC3(C)C: 0.81

(I) CCCCNC(=O)Nc1ccc2c(c1)N=C(c1ccc(C(=O)O)cc1)c1cc3c(cc1N2C)C(C)(C)CCC3(C)C
(II) CCN1c2ccc(NS(=O)(=O)c3cccc(C(F)(F)F)c3)cc2N=C(c2ccc(C(=O)O)cc2)c2cc3c(cc21)C(C)(C)CCC3(C)C
query: Quick one: lower IC50, I or II ? Pick one and reply with its label.
result: II
(II: 0.16 µM, I: 3.4 µM)
